# Test system: S221 (mouse-adapted DENV2 strain)
# assay notes: Antiviral effect in Vero cells, plaque assay of supernatant 48 h pi
# Type: cell-based
# cond: S221, MOI 0.3, read-out: EC50
measurement label: pEC50
The read-out pEC50 is expressed as -log10 of concentration in moles per litre.

GET /values?readout=pEC50&item= C#C[C@@]1(O)[C@H](O)[C@@H](CO)O[C@H]1n1ccc2c(N)ncnc21 [NITD008, reference compound]
5.83

---

# System: S221 (mouse-adapted DENV2 strain)
# assay notes: Antiviral effect in HuH-7 cells, plaque assay of supernatant 48 h pi
# Format: cell-based
# cond: Dengue virus, DENV2, Huh-7, HuH-7, S221, MOI 0.3
measurement label: EC50
Provide the measurement as a number trailed by its unit.

Quick one: EC50 for CCCC(=O)O[C@H]1CN2CC[C@H](O)[C@@H]2[C@@H](O)[C@@H]1O [celgosivir] ?
5.1 µM

---

# System: EDEN2 (clinical DENV2 isolate)
# assay notes: Antiviral effect in Vero cells, plaque assay of supernatant 48 h pi
# Assay type: cell-based
# cond: Dengue virus, DENV2, Vero, EDEN2, MOI 0.3
measurement label: pEC50
Lab note — pEC50 values are minus log10 of concentrations in M.

Quick check: pEC50 of `CCCC(=O)O[C@H]1CN2CC[C@H](O)[C@@H]2[C@@H](O)[C@@H]1O` ?
5.61

---

# System: EDEN1 (clinical DENV1 isolate)
# assay notes: Antiviral effect in HuH-7 cells, plaque assay of supernatant 48 h pi
# Format: cell-based
# cond: HuH-7, EDEN1, MOI 0.01; read-out: EC50
measurement label: EC50

Recorded EC50 of C#C[C@@]1(O)[C@H](O)[C@@H](CO)O[C@H]1n1ccc2c(N)ncnc21 [NITD008, reference compound] , please.
356 nM

---

# Tested on: S221 (mouse-adapted DENV2 strain)
# assay notes: Antiviral effect in BHK-21 cells, plaque assay of supernatant 48 h pi
# Format: cell-based
# cond: Dengue virus, DENV2, BHK-21
measurement label: pEC50
A value of pEC50 is the negative decimal logarithm of a concentration given in moles per litre.

Consider the compound CCCC(=O)O[C@H]1CN2CC[C@H](O)[C@@H]2[C@@H](O)[C@@H]1O [celgosivir] and give its measured pEC50.
6.92

---

# Tested on: EDEN2 (clinical DENV2 isolate)
# assay notes: Antiviral effect in BHK-21 cells, plaque assay of supernatant 48 h pi
# Type: cell-based
# cond: Dengue virus, DENV2, BHK-21
measurement label: EC50 (nM)
Quick reminder: number only, in nM, skip the unit.

Form field: EC50 recorded for CCCC(=O)O[C@H]1CN2CC[C@H](O)[C@@H]2[C@@H](O)[C@@H]1O [celgosivir] with EDEN2 (clinical DENV2 isolate) (enter value)
61

---

# Test system: EDEN2 (clinical DENV2 isolate)
# assay notes: Antiviral effect in Vero cells, plaque assay of supernatant 48 h pi
# Type: cell-based
# cond: Dengue virus, DENV2, Vero, EDEN2, MOI 0.3 (text)
measurement label: pEC50
# reply with the number alone; pEC50 is -log10 of concentration in mol/L

Which pEC50 value is on record for `CCCC(=O)O[C@H]1CN2CC[C@H](O)[C@@H]2[C@@H](O)[C@@H]1O` ?
5.62

---

# System: EDEN1 (clinical DENV1 isolate)
# assay notes: Antiviral effect in BHK-21 cells, plaque assay of supernatant 48 h pi
# Format: cell-based
# cond: BHK-21, EDEN1, MOI 0.3; read-out: EC50
measurement label: EC50 (nM)
Your answer is read as nM, so omit the unit and give the number.

Lab request: please report EC50 under test system EDEN1 (clinical DENV1 isolate) for C#C[C@@]1(O)[C@H](O)[C@@H](CO)O[C@H]1n1ccc2c(N)ncnc21 [NITD008, reference compound]
865
